# Tested on: MDA-MB-468
# Measurement notes: phospho-S6 immunofluorescence (DAPI-normalised), per-plate z-score; higher = higher phospho-S6 signal (less pathway suppression)
# Condition details: co-treatment: lapatinib 1 uM; 24 h
Readout name: phospho-S6 immunofluorescence (z-score)
No unit in the answer, only the number.

Enquiry: For COCCCN1CCC(NC(=O)c2cc(Cl)c(N)c3c2OCC3)CC1 [Prucalopride (succinate)] (compound 10 µM) , write its phospho-S6 immunofluorescence (z-score).
Return: -0.3

Enquiry: For O=C(O[C@@H]1C[C@@H]2C[C@H]3C[C@H](C1)N2CC3=O)c1c[nH]c2ccccc12 [Dolasetron (Mesylate hydrate)] (compound 10 µM) , write its phospho-S6 immunofluorescence (z-score).
Return: -0.24

Enquiry: For C[C@@H](NCCCc1cccc(C(F)(F)F)c1)c1cccc2ccccc12 [Cinacalcet] (compound 10 µM) , write its phospho-S6 immunofluorescence (z-score).
Return: -7.68

Enquiry: For O=C(Nc1cccc2c(=O)cc(-c3nnn[nH]3)oc12)c1ccc(OCCCCc2ccccc2)cc1 [Pranlukast] (compound 10 µM) , write its phospho-S6 immunofluorescence (z-score).
Return: 0.55

Enquiry: For CC(=O)OCC(=O)[C@@]12OC(C)(C)O[C@@H]1C[C@H]1[C@@H]3C[C@H](F)C4=CC(=O)C=C[C@]4(C)[C@@]3(F)[C@@H](O)C[C@@]12C [Fluocinonide] (compound 10 µM) , write its phospho-S6 immunofluorescence (z-score).
Return: 0.59

Enquiry: For CN1[C@@H]2CC[C@H]1C[C@@H](OC(=O)C(O)c1ccccc1)C2 (some centres not stated) [Homatropine (Bromide)] (compound 10 µM) , write its phospho-S6 immunofluorescence (z-score).
Return: 0.08

Enquiry: For O=C(O)CC1CCC2(CC1)CCN(c1cc(OC(F)(F)F)ccc1Cl)CC2 (compound 10 µM) , write its phospho-S6 immunofluorescence (z-score).
Return: 0.11

src = the supplement of paper PMC7411640
